tested on: SNB-19 CNS; assay: NCI tumour cell line growth inhibition, 48 h
Would you mind telling me the reported GI50 of each entry?

INSERT INTO assay_data (molecule, observable, assay_value) VALUES
  ('CCC(C)CC(C)C(=O)c1c(O)ccn(O)c1=O (stereo unspecified)', 'GI50', '1.19 µM'),
  ('O=C1NC(=O)C(c2ccccc2)=C1Nc1ccccc1', 'GI50', '> 25 µM'),
  ('NC(=O)CCc1ccccc1Oc1nccc(-c2c(-c3ccc(F)cc3)ncn2C2CCNCC2)n1', 'GI50', '> 25 µM'),
  ('CC(=O)OCC1OC([Se-])C(OC(C)=O)C(OC(C)=O)C1OC(C)=O.N#CCC[PH+](CCC#N)CCC#N.[Au+] (stereo unspecified)', 'GI50', '10.9 µM'),
  ('COc1ccc(/C=C/C(=O)c2ccc(Nc3nc(Nc4ccc(F)cc4)nc(Nc4ccc(Cl)cc4)n3)cc2)cc1', 'GI50', '> 100 µM');

Moving on to the next molecule.
I'd like to know its GI50. The molecule in question is Cn1c(NCC(CN2CCCC2)OC(=O)c2ccccc2)cc(=O)n(C)c1=O (stereo unspecified)
> 100 µM

----------
tested on: HL-60(TB) leukemia; test: NCI tumour cell line growth inhibition, 48 h; in the data active = GI50 below about 0.43 µM; inactive = the rest
Hello, when you answer, please use one of the following outcomes: y (active), n (inactive)

In this assay, the call recorded for O=C(NS(=O)(=O)c1ccc(NC[C@H]2COCCO2)c([N+](=O)[O-])c1)c1ccc(N2CCN(CC3=C(c4ccc(Cl)cc4)CC4(CCC4)CC3)CC2)cc1Oc1cnc2[nH]ccc2c1 was what?
n

Given NCCCn1c2c(c3ccc([N+](=O)[O-])cc3c1=O)C(=O)c1cc(F)ccc1-2 , state the outcome it received in this test.
y

Query: recorded result category for CC(=O)OCC1OC([Se-])C(OC(C)=O)C(OC(C)=O)C1OC(C)=O.N#CCC[PH+](CCC#N)CCC#N.[Au+] (stereo not drawn) in this test
n

----------
For each entry below, report its TGI value.
tested on: SNB-75 CNS; assay: NCI tumour cell line growth inhibition, 48 h

Please go through the list and note TGI for each compound.
1. [N-]=[N+]=CC(=O)OCC1NC(=O)C(COC(=O)C=[N+]=[N-])NC1=O (stereo unspecified)
2. Cc1cnc2c(c1)C(=O)N(c1ccc([N+](=O)[O-])cc1)S2(=O)=O

["> 100 µM", "> 100 µM"]

----------
test system: LOX IMVI melanoma; assay: NCI tumour cell line growth inhibition, 48 h
Please provide measured log10 TGI for the entries that follow.
// units: µM (pre-log); metric: TGI; scale: log10

INSERT INTO assay_data (compound, assay_value) VALUES
  ('c1ccc(-c2cn(-c3ccccc3)c(-c3ccccc3)n2)cc1', 0.63);

Report log10 TGI for each item below.
1. CC(C)(CN1CCCCC1)C(=O)CC(SCCN)c1ccc(Cl)cc1 (stereo unspecified)
2. CC(=O)OCC1OC([Se-])C(OC(C)=O)C(OC(C)=O)C1OC(C)=O.N#CCC[PH+](CCC#N)CCC#N.[Au+] (stereo unspecified)
3. CCOc1cc(/C=C/C(=O)C(C(=O)/C=C/c2ccc(OC(=O)CNc3nnc(C)s3)c(OCC)c2)C(=O)CNc2nnc(C)s2)ccc1OC(=O)CNc1nnc(C)s1
4. O=C(NCCc1ccccc1)c1cc(/C=C/c2cc(O)ccc2O)ccc1O

1. 0.69
2. 1.46
3. 0.34
4. 1.24

Below is a list of compounds. For each, state its recorded log10 TGI.
1. O=c1[nH]c2ccccc2n2cc3ccccc3c12
2. N#Cc1c2ccccc2c2nnc3ccc(C(F)(F)F)cc3n12
3. COc1ccc2c(c1)-c1nc(=O)n(CCCN(C)C)c3ccc([N+](=O)[O-])c(c13)N2
4. N#C/C(=C\c1ccc(F)cc1)n1nc2cccc(F)c2n1
5. CCCCCC#COC1CC(C)CC[C@@H]1C(C)C (stereo partly specified)
6. O=c1c(O)cc2c(O)oc3c(=O)c(O)c(O)c4c(O)oc1c2c43
7. O=C(N/C=C/C=C/Sc1ccccc1)OCc1ccccc1
8. O=[N+]([O-])/C=C/c1cc2ccc3ccccc3c2[nH]1

1. 1.08
2. 1.98
3. 0.51
4. 0.99
5. 1.48
6. 1.53
7. 1.51
8. 0.38

For each entry beneath this line, provide reported log10 TGI.
1. C/C1=C/C[C@@H](/C(C)=C/c2csc(C)n2)OC(=O)C[C@H](O)C(C)(C)C(=O)[C@H](C)[C@@H](O)[C@@H](C)CCC1
2. C=CC(OC(=O)C(C)C)c1ccc(OC(=O)C(C)C)cc1 (stereo unspecified)

-0.84
1.22

Each compound below has a recorded value; state its log10 TGI.
1. C=C1CC(C)(COc2cc(=O)oc3ccccc23)OC1=O (stereo unspecified)
2. CN(C)CC1CCCCCCCCCCCCC(CN(C)C)C1=O (stereo unspecified)

1. 1.06
2. 1.33
